These measurements were taken from ChEMBL document CHEMBL1649566.

- System: Plasmodium falciparum
- Assay: Antimalarial activity against Plasmodium falciparum isolate Kil-164 expressing DHFR Ser108Asn, Asn51Ile, Cys59Arg and Ile164Leu quadruple mutant by [3H]hypoxanthine incorporation assay
- Type: functional, organism-based
Let's look at some compounds and their measured pIC50.
Please note pIC50 is a logarithmic value: minus log10 of concentration in mol/L. Answer with that number alone.

Compound	pIC50
COc1cc(NCc2ccc3nc(N)nc(N)c3c2C)cc(OC)c1OC [TRIMETREXATE]	7.35
CC1(C)N=C(N)N=C(N)N1OCCCOc1cc(Cl)c(Cl)cc1Cl	10.92
CN(Cc1cnc2nc(N)nc(N)c2n1)c1ccc(C(=O)N[C@@H](CCC(=O)O)C(=O)O)cc1 [METHOTREXATE]	7.25
COc1cc(Cc2cnc(N)nc2N)cc(OC)c1OC	3.81

Now take the following compound into account.
Which measured pIC50 belongs to `CC1(C)N=C(N)N=C(N)N1c1ccc(Cl)c(Cl)c1` , tested on Plasmodium falciparum?
7.06
